- System: CD8+ T cells
- protocol details: In vitro immunogenicity: T-cell priming with aAPCs loaded with peptide/MHC and anti-CD28, multimer readout
- Type: cell-based, human
- applied conditions: HLA A*03

substance	Wells positive [%]
64 (STTKLYLAK; listed as Homo sapiens) [compound 64]	“+” (<20% = +)
66 (ATYEGIQKK; listed as Homo sapiens) [compound 66]	“+” (<20% = +)
105 (GSAALYLLR; listed as Homo sapiens) [compound 105]	“+” (<20% = +)
94 (KTYVGHPVKM; listed as Homo sapiens) [compound 94]	“+” (<20% = +)
82 (TAYGSTVSK; listed as Homo sapiens) [compound 82]	“+” (<20% = +)
110 (GTESGTILK; listed as Homo sapiens) [compound 110]	“+” (<20% = +)

====

- Tested on: CD8+ T cells
- protocol details: In vitro immunogenicity: T-cell priming with aAPCs loaded with peptide/MHC and anti-CD28, multimer readout
- Type: cell-based, human
- applied conditions: HLA A*02
measurement type: Wells positive [%]

substance	experimental system	measurement type	result
250 (KMILKMVQL; listed as Homo sapiens) [compound 250]	CD8+ T cells	Wells positive [%]	“++” (20%-49% = ++)
38 (VMLNSNVLL; listed as Homo sapiens) [compound 38]	CD8+ T cells	Wells positive [%]	“+” (<20% = +)
42 (KMMALVAEL; listed as Homo sapiens) [compound 42]	CD8+ T cells	Wells positive [%]	“++++” (>= 70% = ++++)
57 (GLTGVIMTI; listed as Homo sapiens) [compound 57]	CD8+ T cells	Wells positive [%]	“++++” (>= 70% = ++++)
60 (GLPDFVKEL; listed as Homo sapiens) [compound 60]	CD8+ T cells	Wells positive [%]	“++” (20%-49% = ++)
249 (ALFPERITV; listed as Homo sapiens) [compound 249]	CD8+ T cells	Wells positive [%]	“++” (20%-49% = ++)
50 (ELMPRVYTL; listed as Homo sapiens) [compound 50]	CD8+ T cells	Wells positive [%]	“+” (<20% = +)
43 (GLMTIVTSL; listed as Homo sapiens) [compound 43]	CD8+ T cells	Wells positive [%]	“++” (20%-49% = ++)

====

- experimental system: HLA-A*01:01 (Homo sapiens, UniProt P04439, A114D/A174V/A182V/D101N/D185E/E176A/E190D/L180R/Q94H/R68K/S129P/T187R/V100A/V91M/W191G)
- protocol details: MHC binding assay (UV-ligand exchange, β2m ELISA)
- applied conditions: peptide exchange yield
measurement type: Peptide exchange

substance	result
25 (LMKEVMEHY; listed as Homo sapiens) [compound 25]	“++” (>20% = ++)
2 (LPSPTDSNFY; listed as Homo sapiens) [compound 2]	“++” (>20% = ++)
243 (RSPNNFLSY; listed as Homo sapiens) [compound 243]	“++” (>20% = ++)
28 (LTDYINANY; listed as Homo sapiens) [compound 28]	“+++” (>50 = +++)
18 (EVSNGKWLLY; listed as Homo sapiens) [compound 18]	“+++” (>50 = +++)
5 (SILGSDVRVPSY; listed as Homo sapiens) [compound 5]	“++” (>20% = ++)
10 (ITAQNHGY; listed as Homo sapiens) [compound 10]	“++” (>20% = ++)
